Molecular target: Tyrosine-protein kinase Fyn (Homo sapiens)
Sequence (P06241 whole entry): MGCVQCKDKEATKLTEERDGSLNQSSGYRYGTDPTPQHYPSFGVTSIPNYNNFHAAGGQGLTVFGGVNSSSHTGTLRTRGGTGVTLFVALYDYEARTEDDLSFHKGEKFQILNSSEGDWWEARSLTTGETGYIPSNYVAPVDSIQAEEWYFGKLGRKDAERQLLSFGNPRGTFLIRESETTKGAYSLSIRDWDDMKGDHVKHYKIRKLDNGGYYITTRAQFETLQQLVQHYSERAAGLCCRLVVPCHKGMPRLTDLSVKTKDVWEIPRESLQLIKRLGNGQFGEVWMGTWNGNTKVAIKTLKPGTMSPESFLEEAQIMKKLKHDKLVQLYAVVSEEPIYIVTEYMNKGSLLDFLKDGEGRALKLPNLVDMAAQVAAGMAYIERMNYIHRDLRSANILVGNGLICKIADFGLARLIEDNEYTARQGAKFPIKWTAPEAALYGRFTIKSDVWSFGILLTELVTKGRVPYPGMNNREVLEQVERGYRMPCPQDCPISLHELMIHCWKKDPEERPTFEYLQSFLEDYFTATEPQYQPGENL
resultType: Kd
Mention the unit after the number when you answer.

Enquiry: Request body: readout Kd, system Tyrosine-protein kinase Fyn (Homo sapiens), query O=C(O[C@@H]1Cc2c(O)cc(O)cc2O[C@@H]1c1cc(O)c(O)c(O)c1)c1cc(O)c(O)c(O)c1 [EPIGALOCATECHIN GALLATE] . Return the value.
Return: 0.367 µM
